Where these numbers come from: PubChem BioAssay AID1963843

Tested on: 616215-338-R-J1-PDC complex spheroid viability;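 note: spheroids exposed to compounds for one week before readout; percent viability relative to DMSO vehicle wells taken as 100%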
measurementProtocol: Anticancer human tumor 616215-338-R-J1-PDC patient-derived colon adenocarcinoma cell line growth inhibition [POLQ]
testParameters: second compound 3.16 µM; first compound 0.1 µM; active compounds read low
measuredMetric: viability, T/C (%)
Your answer should be a plain number; it is taken to be in %.

CCc1cc2c(N3CCc4c(cc(Cn5ccnc5)cc4-c4cn(C)nc4C(F)(F)F)C3=O)cc(C)nc2c(OC)n1 + Nc1ccc(C#CCN(C(=O)Cc2ncc(C(F)(F)F)cc2C(F)(F)F)c2ccc(F)cc2)nn1 | 111
COc1ccc([C@@H](O)c2cc(-c3ncnc4cc(N5CCOCC5)ccc34)c(F)cc2Cl)nn1 + Nc1ccc(C#CCN(C(=O)Cc2ncc(C(F)(F)F)cc2C(F)(F)F)c2ccc(F)cc2)nn1 | 109

response.value for O=C(Nc1ccc(O)c(NS(=O)(=O)c2ccc(F)cc2)c1)c1ccc(-c2ccccc2)cc1 + Nc1ccc(C#CCN(C(=O)Cc2ncc(C(F)(F)F)cc2C(F)(F)F)c2ccc(F)cc2)nn1 (field: viability, T/C) = 103

response.value for CC[C@@]1(O)C(=O)OCc2c1cc1n(c2=O)Cc2cc3c(CN(C)C)c(O)ccc3nc2-1 + Nc1ccc(C#CCN(C(=O)Cc2ncc(C(F)(F)F)cc2C(F)(F)F)c2ccc(F)cc2)nn1 (field: viability, T/C) = 29.1

response.value for COc1cc(C2c3cc4c(cc3C(OC3OC5COC(C)OC5C(O)C3O)C3COC(=O)C23)OCO4)cc(OC)c1O (stereo not given) + Cc1cccc(N(C)C(=O)C2C(O)CCN2c2nc(C)cc(C(F)(F)F)c2C#N)c1 (field: viability, T/C) = 106

response.value for CC1COCCN1c1cc(-c2ccnn2C)c2ccnc(-c3ccn[nH]3)c2n1 (stereo not given) + COC1C(OC(N)=O)C(O)C(Oc2ccc3c(O)c(NC(=O)c4ccc(O)c(CC=C(C)C)c4)c(=O)oc3c2C)OC1(C)C (field: viability, T/C) = 86.4

response.value for O=c1[nH]cc(F)c(=O)[nH]1 + Cc1cccc(N(C)C(=O)C2C(O)CCN2c2nc(C)cc(C(F)(F)F)c2C#N)c1 (field: viability, T/C) = 102
